Would you kindly list pIC50 for each of these compounds?
# assayed.target: Human CARM1 (PRMT4) (Homo sapiens, UniProt Q86X55)
# Construct: Flag-CARM1-His was eluted with 200 ug/ml FLAG peptide in buffer A
# assay.overview: CARM1 enzyme assay on peptide substrates (3H-SAM Flashplate)
# reported.conditions: Biochemical assay; CARM1 0.25 nM, 3H-SAM 30 nM, peptide 250 nM; read-out: Biochem IC50
Answers are plain numbers, as −log10 of the molar value.

Some compounds with known pIC50 results, for comparison:
> print(dat)
                                   compound  measurement.type  assay.result
1  CNC[C@@H](O)COc1ccc(Cl)c(-c2nc(-c3c(C)noc3C)c(C)c(N3Cc4ncnc(OCCOC)c4C3)n2)c1             pIC50          8.64
2  CNC[C@@H](O)COc1ccc(Cl)c(-c2nc(-c3c(C)noc3C)c(C)c(N3Cc4ccc(OCC(F)F)nc4C3)n2)c1             pIC50          8.65
3  CNC[C@@H](O)COc1ccc(Cl)c(-c2nc(-c3c(C)noc3C)c(C)c(N3Cc4cnc(N5CC(F)(F)C5)nc4C3)n2)c1             pIC50          8.55
4  CNC[C@@H](O)COc1ccc(Cl)c(-c2nc(-c3c(C)noc3C)c(C)c(N3CC(C)(COC)C3)n2)c1             pIC50          8.19
5  CNC[C@@H](O)COc1ccc(Cl)c(-c2nc(-c3c(C)noc3C)c(C)c(N3CC(C#N)(COC)C3)n2)c1             pIC50          8.38
6  CNC[C@@H](O)COc1ccc(Cl)c(-c2nc(-c3c(C)noc3C)c(C)c(N3CCN(CC(F)(F)F)CC3)n2)c1             pIC50          8.32
7  CNC[C@@H](O)COc1ccc(Cl)c(-c2nc(-c3c(C)noc3C)c(C)c(N3CC4(CCC(S(C)(=O)=O)CC4)C3)n2)c1             pIC50          7.96
8  CNC[C@@H](O)COc1ccc(Cl)c(-c2nc(-c3c(C)noc3C)c(C)c(N3CC4(CCC4OC)C3)n2)c1 (stereo partly shown)             pIC50          8.41

State the recorded pIC50 for every item in the following list.
1. CNC[C@@H](O)COc1ccc(Cl)c(-c2nc(-c3c(C)noc3C)c(C)c(N3CC4=C(CN(C(=O)OC)CC4)C3)n2)c1
2. CNC[C@@H](O)COc1ccc(Cl)c(-c2nc(-c3c(C)noc3C)c(C)c(N3Cc4ccc(N5CC(OC)C5)nc4C3)n2)c1
3. CNC[C@@H](O)COc1ccc(Cl)c(-c2nc(-c3c(C)noc3C)c(C)c(N3CC4(CN(CCC#N)C4)C3)n2)c1
4. CNC[C@@H](O)COc1ccc(Cl)c(-c2nc(-c3cnn(CC(F)F)c3)c(C)c(-c3c(C)noc3C)n2)c1
5. CNC[C@@H](O)COc1ccc(Cl)c(-c2nc(-c3c(C)noc3C)c(C)c(N3CC4(CCN(C(=O)OC)CC4)C3)n2)c1Cl

A:
8.62
8.72
8.08
8.12
7.51

====

Hi there, I'd appreciate the recorded log10 of IC50 for every entry that follows.
# assayed.target: Human CARM1 (PRMT4) (Homo sapiens)
# Construct: Flag-CARM1-His was eluted with 200 ug/ml FLAG peptide in buffer A
# Sequence (Q86X55 1-585 isoform Q86X55-1): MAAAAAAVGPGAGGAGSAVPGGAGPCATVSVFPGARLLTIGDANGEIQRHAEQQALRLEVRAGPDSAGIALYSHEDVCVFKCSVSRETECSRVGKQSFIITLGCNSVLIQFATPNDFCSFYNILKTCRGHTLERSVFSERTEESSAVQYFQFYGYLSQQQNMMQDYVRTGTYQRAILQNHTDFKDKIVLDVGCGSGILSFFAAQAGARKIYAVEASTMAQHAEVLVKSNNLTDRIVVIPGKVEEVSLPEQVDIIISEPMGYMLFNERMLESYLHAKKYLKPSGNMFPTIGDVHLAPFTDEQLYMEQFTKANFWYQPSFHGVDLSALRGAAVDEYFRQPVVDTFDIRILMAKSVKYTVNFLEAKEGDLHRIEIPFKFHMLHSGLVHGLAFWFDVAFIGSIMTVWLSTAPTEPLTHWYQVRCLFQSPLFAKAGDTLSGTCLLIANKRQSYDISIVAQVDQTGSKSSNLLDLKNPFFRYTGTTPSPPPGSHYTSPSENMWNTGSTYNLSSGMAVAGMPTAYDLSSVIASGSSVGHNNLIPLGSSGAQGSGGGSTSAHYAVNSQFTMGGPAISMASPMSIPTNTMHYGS
# assay.overview: CARM1 enzyme assay on peptide substrates (3H-SAM Flashplate)
# reported.conditions: Biochemical assay; CARM1 0.25 nM, 3H-SAM 30 nM, peptide 250 nM; read-out: Biochem IC50
// units: nM (pre-log); metric: IC50; scale: log10

Check out these entries, answers already filled in.
> print(dat)
                                   compound  assay.result
1  CNC[C@@H](O)COc1ccc(Cl)c(-c2nc(-c3c(C)cnn3C)c(C)c(N3CC4(CCN(C(=O)OC)CC4)C3)n2)c1 [Example 80]          0.94
2  CNC[C@@H](O)COc1ccc(Cl)c(-c2nc(-c3c(C)noc3C)c(C)c(N3Cc4ccc(C)nc4C3)n2)c1 [Example 69]          0.08
3  CNC[C@@H](O)COc1ccc(Cl)c(-c2nc(-c3c(C)noc3C)c(C)c(N3CC4(CCN4CC(F)F)C3)n2)c1 [Example 108]          1.26
4  CNC[C@@H](O)COc1ccc(Cl)c(-c2nc(-c3c(C)noc3C)c(C)c(N3Cc4cc(C)nc(C)c4C3)n2)c1 [Example 102]          0.65
5  CNC[C@@H](O)COc1ccc(F)c(-c2nc(-c3c(C)noc3C)c(C)c(N3CC4(CC=CCC4)C3)n2)c1 [Example 57]          0.53

List the reported log10 of IC50 of each compound below.
1. CNC[C@@H](O)COc1ccc(Cl)c(-c2nc(-c3cnn(CC(F)(F)F)c3)c(C)c(-c3c(C)noc3C)n2)c1 [Example 118]
2. CNC[C@@H](O)COc1ccc(Cl)c(-c2nc(-c3c(Cl)cnn3C)c(C)c(N3Cc4cncnc4C3)n2)c1 [Example 344]

A:
1. 0.95
2. 1.11
